Target: T1, human Trop2 on cells (human, UniProt P09758 27-323)
T1 sequence (looked up): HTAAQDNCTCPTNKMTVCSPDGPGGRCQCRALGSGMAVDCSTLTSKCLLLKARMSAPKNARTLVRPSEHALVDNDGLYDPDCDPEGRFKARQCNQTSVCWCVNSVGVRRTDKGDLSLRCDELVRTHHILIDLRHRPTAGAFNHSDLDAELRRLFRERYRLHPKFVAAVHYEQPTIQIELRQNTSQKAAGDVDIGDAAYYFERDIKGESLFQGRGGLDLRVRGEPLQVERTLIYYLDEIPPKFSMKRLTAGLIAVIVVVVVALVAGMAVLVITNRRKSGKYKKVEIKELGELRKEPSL
Assay: cell-based or functional assay
REPORTED_PROPERTY: ADCP (Donor A19143143#) EC50(nM), BxPC-3 + macrophages
Supply the numeric figure in nM, leaving out any unit text.

Give the reported value of ADCP (Donor A19143143#) EC50(nM), BxPC-3 + macrophages for this record: PR001166 (antibody, human IgG1, kappa, V domains shown, fully human IgG1/kappa; also called antibody No. (27)) VH: QVQLQESGPGLVKPSETLSLTCAVSGYSISSGYFWAWIRQPPGKGLEWIGSIYHSGRTHYNPSLKSRVIISLDTSKNQFSLKLRSVTAADSAVYYCAREGYASGSYYWGQGTLVTVSS VL: EIVMTQSPATLSVSPGERATLSCRSSQSVNNYLAWFQQKPGQAPRLLIYDSSTRATGIPARFSGSGSGTEFTLTISSLQSEDFAFYFCQQYENWPLTFGGGTKVEIKR
0.161
